assay: Rat oral pharmacokinetic study; type: in vivo, Sprague Dawley rats; conditions: Sprague Dawley; male rat, single PO 1000 mg/kg of compound 9, 5% TPGS/5% PVP-K30/50 mM Citrate pH 5, analyte 9a in plasma, mean ± SD
MEASURE_NAME: half-life (min)

1. Cc1cc(F)ccc1Oc1cc(C(F)(F)F)ccc1C(=O)Nc1cc[nH]c(=O)c1 ... 477

---

Experiment: Rat oral pharmacokinetic study
Format: in vivo, Sprague Dawley rats
Settings: Sprague Dawley; female rat, single PO 300 mg/kg of compound 9, 5% TPGS/5% PVP-K30/50 mM Citrate pH 5, analyte 9a in plasma, mean ± SD
Procedure: Sample Analysis. […] Before extraction, plasma samples were diluted using blank plasma at an appropriate dilution factor, as necessary, depending on the dose level. […] After centrifugation, the supernatant extract (10 μL) was injected onto the LC/MS/MS system. […] The analytes were detected by MS/MS with Electrospray Ionization (ESI) in the mode of multiple reaction monitoring (MRM). […] Key pharmacokinetic parameters such as AUCall, AUCextra, Cmax, tmax, Cl, Vss and t1/2 were determined. […]
MEASURE_NAME: half-life (h)

1) Cc1cc(F)ccc1Oc1cc(C(F)(F)F)ccc1C(=O)Nc1cc[nH]c(=O)c1 ... 13.1
